assay: Toxicity liver stage against HepG2, at 10uM; type: cell-based; parameters: test concentration 10 uM, cell line HepG2-A16-CD81EGFP; conditions: human, HepG2-A16-CD81EGFP cells; read-out: INHIBITION
Readings of cytotoxicity at 10 µM for the listed molecules
I only need the number, in %, no unit after it.

Solved entries:
Cc1cnn(CCNCc2ccc(OCC(N)=O)cc2)c1 :: -0.86
Cc1ccccc1CN1CCN(CC(=O)Nc2cccnc2)CC1 :: -2.82
COc1c(CNCc2ccc(CS(C)(=O)=O)cc2)c(C)nn1C :: -4.47
Cc1nc(CN2CCc3ncnc(C)c3CC2)cs1 :: -1.8
Cc1cccc(NC(=O)c2cccc(OCc3nnnn3C)c2)n1 :: 3
Cc1ccc(OC2(C(=O)O)CCN(C(=O)c3cccs3)CC2)cn1 :: 0.92
O=C(NCCCOCC1CC1)Nc1cccnc1N1CCOCC1 :: 5.55
CCS(=O)(=O)N1CCc2ccc(NC(=O)Nc3ccccc3)cc21 :: 42.2
CCSCCC(=O)N1CCc2[nH]nc(COc3ccccc3)c2C1 :: -2.19
CNc1cc2c(nn1)CCN(C(=O)c1cccc3c1OCO3)C2 :: -10.6

Q. # query: cytotoxicity at 10 µM of entry CS(=O)(=O)N1CCCC(c2cncc(Nc3ccccn3)n2)C1 (stereo not given)
A. 0.609

Q. Cool, now COc1cccc(COCC(=O)NC(C)c2nnc3n2CCC3)c1 (stereo not given)
A. -3.36

Q. Cool, now O=C(c1cccc2cn[nH]c12)N1CCCC1c1noc(C2CC2)n1 (stereo not given)
A. -16.8

###

Readings of cytotoxicity at 10 µM for the listed compounds
experiment: Toxicity liver stage against HepG2, at 10uM; assay type: cell-based; parameters: test concentration 10 uM, cell line HepG2-A16-CD81EGFP; details: human, HepG2-A16-CD81EGFP cells; read-out: INHIBITION
I only need the number, in %, no unit after it.

Solved entries:
CN(C)CCN1CCCC12CCN(C(=O)c1ccncc1)CC2 :: 6.29
CO[C@H]1CCN(S(=O)(=O)c2cccnc2)[C@@H]2CN(CC3CC3)C[C@H]12 :: -73.5

Q. # query: cytotoxicity at 10 µM of entry `CC(C)n1cnnc1CN(C)C(=O)CCn1cnc2ccccc2c1=O`
A. 6.4

Q. Cool, now `COCCNC(=O)c1cnc(C)nc1C`
A. 24.5

Q. Cool, now CCc1cnc(CN2CCOC(c3nc(C)n[nH]3)C2)o1 (stereo unspecified)
A. -4.83

Q. Cool, now `COCCN1CCC2(CC1)COc1ccccc1S(=O)(=O)N(C)C2`
A. -1.28

###

experiment: Toxicity liver stage against HepG2, at 10uM; type: cell-based; set-up: test concentration 10 uM, cell line HepG2-A16-CD81EGFP; conditions: human, HepG2-A16-CD81EGFP cells; read-out: INHIBITION
Test Readout: cytotoxicity at 10 µM (%)
I only need the number, in %, no unit after it.

COc1nc(C)ccc1CNC(=O)NC(C)Cc1c(C)nn(C)c1C (stereo unspecified) :: 8.37
CS(=O)(=O)Nc1cccc(CNC(=O)CCc2ccsc2)c1 :: 2.24
COc1ccc(F)c(F)c1CN1CCC2(CC1)[C@H](O)C[C@@H]2OCCN :: -14.5

Q. # query: cytotoxicity at 10 µM of entry CNC(=O)C1CCN(Cc2nc(-c3ccc(SC)cc3)oc2C)C1 (stereo unspecified)
A. -0.465

Q. Cool, now O=C(CC1CCCO1)Nc1ccn(Cc2cccc3cccnc23)n1 (stereo unspecified)
A. 2.17

###

assay: Toxicity liver stage against HepG2, at 10uM; type: cell-based; set-up: test concentration 10 uM, cell line HepG2-A16-CD81EGFP; conditions: human, HepG2-A16-CD81EGFP cells; read-out: INHIBITION
Readings of cytotoxicity at 10 µM for the listed compounds
I only need the number, in %, no unit after it.

Cc1oc(-c2cc(F)cc(F)c2)nc1CN1C[C@@H](C)NC[C@@H]1C :: -1.66
O=C(CCC(F)(F)F)N1CCCC(c2ncc[nH]2)C1 (stereo not drawn) :: 2.14
COc1ccc(-c2nnc(SC(C)C(=O)NC(C)(C)C)[nH]2)c(OC)c1 (stereo not drawn) :: 66.5
CC(C)Oc1ncnc2c1CCN(C(=O)c1cccn1C)CC2 :: 6.95
CCCn1cc(C(=O)NCc2nnc(-c3ccc(C)nc3)o2)c(C)n1 :: -0.277

Q. # query: cytotoxicity at 10 µM of entry `CCOc1ccnc(N2CCN(C(=O)c3ccn(C)c(=O)c3)CC2)n1`
A. -14.8

Q. Cool, now `Cc1nc(N2CCCC2)nc(C)c1NS(=O)(=O)c1ccccc1F`
A. -3.92

Q. Cool, now `Cc1ccccc1C(=O)N1CCN(c2ccc(-n3cncn3)nn2)CC1`
A. 50.8

###

test: Toxicity liver stage against HepG2, at 10uM; assay type: cell-based; design: test concentration 10 uM, cell line HepG2-A16-CD81EGFP; details: human, HepG2-A16-CD81EGFP cells; read-out: INHIBITION
Readings of cytotoxicity at 10 µM for the listed molecules
I only need the number, in %, no unit after it.

Q. # query: cytotoxicity at 10 µM of entry CCC1CN(C)c2ccccc2CN1C(=O)Nc1ccccc1OC (stereo unspecified)
A. -1.87

Q. Cool, now `Cc1ccc(CN2CC[C@H]3C[C@H](C(=O)N4CCCO4)O[C@@H]3C2)o1`
A. 7.11

Q. Cool, now `CCOC(=O)CN1C[C@@H]2OCCN(c3ncc(F)cn3)[C@@H]2C1`
A. 20.2

Q. Cool, now CCc1nc2c(s1)C(N(C)C(C)=O)CCC2 (stereo unspecified)
A. -11.6

###

assay: Toxicity liver stage against HepG2, at 10uM; format: cell-based; design: test concentration 10 uM, cell line HepG2-A16-CD81EGFP; settings: human, HepG2-A16-CD81EGFP cells; read-out: INHIBITION
Test Readout: cytotoxicity at 10 µM
Kindly write the number and append the unit.

Q. # query: cytotoxicity at 10 µM of entry `N#Cc1c(N2CCCN(C3CCOCC3)CC2)nc2ccccn12`
A. 14.7%

Q. Cool, now `Cc1cc(C)n2c(CNCc3ccc(OC(F)F)cc3)cnc2n1`
A. -145%

Q. Cool, now `CC(C)CCN1CCC2(CC1)CN(C(=O)c1cnccn1)CCO2`
A. -12.6%

Q. Cool, now `Cc1ccc2[nH]c(CN(C)Cc3n[nH]c4c3CCC4)nc2c1`
A. 4.85%

Q. Cool, now `c1cc(CN2CCC(Cc3noc(C4CC4)n3)CC2)c2c(c1)OCO2`
A. 7.69%

Q. Cool, now COc1ccccc1CNC(=O)C[S+]([O-])Cc1cc(C)on1 (configuration not stated)
A. -4.92%

Q. Cool, now COCCNC(=O)C1(CCCc2cccnc2)CCCN1C (configuration not stated)
A. 20.1%

Q. Cool, now `CSc1[nH]nc(NC(=O)c2cccnc2)c1C#N`
A. -4.87%

Q. Cool, now CC(C)c1ccc(CCC(=O)N2CCOCC2c2ncon2)cc1 (configuration not stated)
A. -4.56%

Q. Cool, now O=C1CC(c2ccc3c(c2)OCO3)c2snc(C(=O)O)c2N1 (configuration not stated)
A. 4.43%

Q. Cool, now `COc1ccc(F)cc1C(=O)N1CC(c2ccncc2)C1`
A. -4.93%

Q. Cool, now O=C(NS(=O)(=O)c1ccc(F)cc1)C1CCOc2ccccc21 (configuration not stated)
A. 9.91%

Q. Cool, now CN(C)C(=O)COCC1CN(Cc2ccoc2)Cc2ncn(C)c21 (configuration not stated)
A. 5.99%

Q. Cool, now `CCN(CC)C(=O)c1nnc2ccc(N3CCOCC3)cc2n1`
A. 5.37%

Q. Cool, now COc1ccc2c(c1)C(NCCc1c(C)noc1C)CCCO2 (configuration not stated)
A. -2.79%

Q. Cool, now `CN1CCCN(C(=O)c2nc3c(o2)CN(C(=O)c2cccnc2)C3)CC1`
A. 2.75%

Q. Cool, now `O=C(C1CCOCC1)N1CCC2(CCN(Cc3nccs3)CC2)CC1`
A. -83.1%

Q. Cool, now `COc1ccc(Cl)cc1S(=O)(=O)N(C)CC(N)=O`
A. 7.82%

Q. Cool, now CN(C)Cc1ccc(C2CCCCN2C(=O)c2cccnn2)cc1 (configuration not stated)
A. -3.29%

Q. Cool, now `CC(=O)N1CCC2(CC1)C(=O)N(CC1CC1)c1ccccc12`
A. 11.2%

Q. Cool, now `CC(=O)N1[C@@H](C(=O)NCC2CC2)C[C@@H]2CN(Cc3nccs3)C[C@@H]21`
A. 1.7%

Q. Cool, now `O=C(c1ccccn1)N1CCN(c2ccc(-c3cccnc3)nn2)CC1`
A. 2.84%

Q. Cool, now `COc1ccc(OC)c(NC(=O)CSc2ccc3nncn3n2)c1`
A. -14.2%

Q. Cool, now `CCCc1cc(C(=O)N(C)Cc2ccc(OC)c3ncccc23)n(C)n1`
A. 37.2%
